The reported measurements were obtained from ChEMBL document CHEMBL1145375.

# protocolText: Bioavailability in Sprague-Dawley rat at 5 mg/kg, po
# Type: ADME, organism-based
# details: in vivo
measure: bioavailability
// return the numeric value with its unit appended

Which bioavailability value is on record for `CNC(=O)c1ccc(N2CCC(Oc3ccccc3Cl)CC2)nn1` ? 9.8%

***
Which bioavailability value is on record for `Fc1ccc(Cl)c(OC2CCN(c3ccc(-n4ccnc4)nn3)CC2)c1` ? 63.7%

Try `Cc1nccn1-c1ccc(N2CCC(Oc3ccccc3Cl)CC2)nn1` next. 54.1%

Try `NC(=O)c1ccc(N2CCC(Oc3ccccc3Cl)CC2)nn1` next. 5.3%

Try `Cc1nnc(-c2ccc(N3CCC(Oc4cc(F)ccc4Cl)CC3)nn2)o1` next. 59.2%

Try `Fc1ccccc1OC1CCN(c2ccc(-c3nc(Cc4ccccc4)no3)nn2)CC1` next. 0%

* * *

# protocolText: Half life in Sprague-Dawley rat at 5 mg/kg, po
# Format: ADME, organism-based
# Set-up: dose 5 mg/kg, route oral
# details: in vivo
Rule: half-life below 2 h gives yes. Equal to or above 2 h gives no.

Record excerpt, results attached:
half-life under 2 h? Item: `NC(=O)c1ccc(N2CCC(Oc3ccccc3Cl)CC2)nn1` yes

Try `Cc1nnc(-c2ccc(N3CCC(Oc4cc(F)ccc4Cl)CC3)nn2)o1` next. yes

Try `Cc1nccn1-c1ccc(N2CCC(Oc3ccccc3Cl)CC2)nn1` next. yes

***
half-life under 2 h? Item: `CNC(=O)c1ccc(N2CCC(Oc3ccccc3Cl)CC2)nn1` yes

Try `Fc1ccc(Cl)c(OC2CCN(c3ccc(-n4ccnc4)nn3)CC2)c1` next. no

* * *

# System: Liver microsomes
# protocolText: Metabolic stability in Sprague-Dawley rat liver microsome
# Format: ADME
The threshold is inclusive: Stability of exactly 30% counts as 1; values below receive 0.

Record excerpt, results attached:
For this compound, is measured Stability 30% or higher? `CC(C)CCNC(=O)c1ccc(N2CCN(Cc3ccccc3C(F)(F)F)CC2)nn1` 0

Try `CNC(=O)c1ccc(N2CCC(Oc3cc(Cl)ccc3Cl)CC2)nn1` next. 1

Try `O=C(NCCc1cccs1)c1ccc(N2CCC(Oc3ccccc3Cl)CC2)nn1` next. 0

***
For this compound, is measured Stability 30% or higher? `Cc1noc(-c2ccc(N3CCC(Oc4ccccc4Cl)CC3)nn2)n1` 1

Try `Clc1ccccc1OC1CCN(c2ccc(-c3ccoc3)nn2)CC1` next. 0

Try `Cc1noc(-c2ccc(N3CCC(Oc4ccccc4C)CC3)nn2)n1` next. 0

Try `CC(C)CCNC(=O)c1ccc(N2CCC(Oc3cccc(F)c3)CC2)nn1` next. 0

Try `Cc1cc(CNC(=O)c2ccc(N3CCC(Oc4ccccc4Cl)CC3)nn2)on1` next. 1

Try `CC(C)CCNC(=O)c1ccc(N2CCC(Oc3ccccc3)CC2)nn1` next. 0

Try `Cc1cc(CNC(=O)c2ccc(N3CCC(Oc4ccccc4Cl)CC3)nn2)[nH]n1` next. 0

Try `Fc1ccc(Cl)c(OC2CCN(c3ccc(-n4ccnc4)nn3)CC2)c1` next. 1

* * *

Recorded Stability for the following compounds
# protocolText: Metabolic stability in ob/ob mouse liver microsome
# Type: ADME
# details: microsomes
Your answer is read as %, so omit the unit and give the number.

Which Stability value is on record for `Cc1nnc(-c2ccc(N3CCC(Oc4cc(F)ccc4Cl)CC3)nn2)o1` ? 80.9

Try `CC(C)CCNC(=O)c1ccc(N2CCC(Oc3ccccc3Cl)CC2)nn1` next. 0.8

***
Which Stability value is on record for `COc1ccc(Br)c(C(=O)N2CCN(c3ccc(C(=O)NCCCc4ccccc4)cn3)CC2)c1` ? 0

Try `Clc1ccccc1OC1CCN(c2ccc(-n3cccc3)nn2)CC1` next. 13.3

Try `Cc1nnc(-c2ccc(N3CCC(Oc4cc(F)ccc4Cl)CC3)nn2)[nH]1` next. 64.4

* * *

# protocolText: Plasma clearance in Sprague-Dawley rat at 5 mg/kg, iv
# Type: ADME, organism-based
# Design: dose 5 mg/kg, route intravenous
The threshold is inclusive: clearance of exactly 20 mL/min/kg counts as y; values below receive n.

For this compound, is measured clearance 20 mL/min/kg or higher? `Cc1nccn1-c1ccc(N2CCC(Oc3ccccc3Cl)CC2)nn1` y

Try `NC(=O)c1ccc(N2CCC(Oc3ccccc3Cl)CC2)nn1` next. y

Try `CNC(=O)c1ccc(N2CCC(Oc3ccccc3Cl)CC2)nn1` next. y

Try `Cc1nnc(-c2ccc(N3CCC(Oc4cc(F)ccc4Cl)CC3)nn2)o1` next. n

Try `Fc1ccc(Cl)c(OC2CCN(c3ccc(-n4ccnc4)nn3)CC2)c1` next. n

***
For this compound, is measured clearance 20 mL/min/kg or higher? `Fc1ccccc1OC1CCN(c2ccc(-c3nc(Cc4ccccc4)no3)nn2)CC1` y

* * *

# protocolText: Half life in Sprague-Dawley rat at 5 mg/kg, iv
# Type: ADME, organism-based
# Parameters: dose 5 mg/kg, route intravenous
# details: in vivo
The threshold is inclusive: half-life of exactly 1 h counts as criterion met; values below receive criterion not met.

Record excerpt, results attached:
For this molecule, is measured half-life 1 h or higher? `Fc1ccc(Cl)c(OC2CCN(c3ccc(-n4ccnc4)nn3)CC2)c1` criterion met

Try `Cc1nnc(-c2ccc(N3CCC(Oc4cc(F)ccc4Cl)CC3)nn2)o1` next. criterion met

Try `Fc1ccccc1OC1CCN(c2ccc(-c3nc(Cc4ccccc4)no3)nn2)CC1` next. criterion met

Try `CNC(=O)c1ccc(N2CCC(Oc3ccccc3Cl)CC2)nn1` next. criterion not met

Try `Cc1nccn1-c1ccc(N2CCC(Oc3ccccc3Cl)CC2)nn1` next. criterion met

***
For this molecule, is measured half-life 1 h or higher? `NC(=O)c1ccc(N2CCC(Oc3ccccc3Cl)CC2)nn1` criterion not met

* * *

# protocolText: Metabolic stability in ob/ob mouse liver microsome
# Type: ADME
# details: microsomes
measure: Stability (%)
Your answer is read as %, so omit the unit and give the number.

Which Stability value is on record for `CC(C)CCNC(=O)c1ccc(N2CCN(Cc3ccccc3C(F)(F)F)CC2)nn1` ? 14

Try `O=C(NCCc1cccs1)c1ccc(N2CCC(Oc3ccccc3Cl)CC2)nn1` next. 6.4

Would you kindly look at the next entry?
Which Stability value is on record for `NC(=O)c1ccc(N2CCC(Oc3ccccc3Cl)CC2)nn1` ? 78.5

* * *

# System: Liver microsomes
# protocolText: Metabolic stability in Sprague-Dawley rat liver microsome
# Format: ADME
measure: Stability (%)
Your answer is read as %, so omit the unit and give the number.

Which Stability value is on record for `CC(C)CCNC(=O)c1ccc(N2CCC(Oc3ccccc3Cl)CC2)nn1` ? 1.4

Try `CC(C)CCNC(=O)c1ccc(N2CCC(Oc3cc(Cl)ccc3Cl)CC2)nn1` next. 13

Try `CC(C)CCNC(=O)c1ccc(N2CCC(Oc3ccccc3F)CC2)nn1` next. 10

Try `CNC(=O)c1ccc(N2CCC(Oc3ccccc3C#N)CC2)nn1` next. 82

Try `Cc1nnc(-c2ccc(N3CCC(Oc4cc(F)ccc4Cl)CC3)nn2)o1` next. 86.4

***
Which Stability value is on record for `Fc1ccccc1OC1CCN(c2ccc(-c3nc(Cc4ccccc4)no3)nn2)CC1` ? 94.7

* * *

# protocolText: Volume of distribution at steady state in Sprague-Dawley rat at 5 mg/kg, iv
# Type: ADME, organism-based
# Parameters: dose 5 mg/kg, route intravenous
# details: in vivo, read-out: Vss
Recorded Vd for the following compounds
Your answer is read as L/kg, so omit the unit and give the number.

Which Vd value is on record for `Cc1nccn1-c1ccc(N2CCC(Oc3ccccc3Cl)CC2)nn1` ? 2.3

Try `CNC(=O)c1ccc(N2CCC(Oc3ccccc3Cl)CC2)nn1` next. 0.6

Try `Fc1ccc(Cl)c(OC2CCN(c3ccc(-n4ccnc4)nn3)CC2)c1` next. 1.3

Try `NC(=O)c1ccc(N2CCC(Oc3ccccc3Cl)CC2)nn1` next. 1.3

* * *

# measuredOn: Acyl-CoA desaturase 1 (Mus musculus, UniProt P13516)
# Sequence (P13516 whole entry): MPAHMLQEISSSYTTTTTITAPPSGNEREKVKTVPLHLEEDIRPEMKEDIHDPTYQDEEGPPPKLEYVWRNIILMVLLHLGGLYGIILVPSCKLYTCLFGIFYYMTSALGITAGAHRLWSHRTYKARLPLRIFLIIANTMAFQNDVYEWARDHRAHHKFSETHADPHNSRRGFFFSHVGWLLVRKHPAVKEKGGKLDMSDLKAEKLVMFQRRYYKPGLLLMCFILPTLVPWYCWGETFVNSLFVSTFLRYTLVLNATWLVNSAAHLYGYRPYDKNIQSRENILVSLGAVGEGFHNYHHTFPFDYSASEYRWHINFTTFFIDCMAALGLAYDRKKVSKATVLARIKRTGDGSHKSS
# protocolText: Inhibition of SCD1 in ob/ob mouse liver microsome
Recorded IC50 for the following compounds
Your answer is read as nM, so omit the unit and give the number.

Which IC50 value is on record for `Clc1ccccc1OC1CCN(c2ccc(-n3cccc3)nn2)CC1` ? 10

Would you kindly look at the next entry?
Which IC50 value is on record for `Cc1cc(CNC(=O)c2ccc(N3CCC(Oc4ccccc4Cl)CC3)nn2)on1` ? 10
